In this section, each of the molecules is paired with its reported inhibition.
Biological target: CDK3/Cyclin E (Homo sapiens) (UniProt P24864+Q00526);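 further: reported percentages are mean inhibition values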
Sequence (P24864 whole entry, looked up): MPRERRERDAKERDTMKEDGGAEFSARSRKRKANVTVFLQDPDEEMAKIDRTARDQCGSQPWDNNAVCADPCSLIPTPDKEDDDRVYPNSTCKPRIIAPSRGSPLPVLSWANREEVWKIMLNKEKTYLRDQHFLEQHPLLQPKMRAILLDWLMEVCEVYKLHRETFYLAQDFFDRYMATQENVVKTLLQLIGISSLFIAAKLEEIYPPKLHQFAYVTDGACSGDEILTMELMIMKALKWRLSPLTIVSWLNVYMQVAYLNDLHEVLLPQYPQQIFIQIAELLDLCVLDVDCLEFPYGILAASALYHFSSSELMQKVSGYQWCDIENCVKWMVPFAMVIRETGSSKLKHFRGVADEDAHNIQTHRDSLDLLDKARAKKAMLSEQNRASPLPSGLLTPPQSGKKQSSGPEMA
Sequence (Q00526 whole entry, looked up): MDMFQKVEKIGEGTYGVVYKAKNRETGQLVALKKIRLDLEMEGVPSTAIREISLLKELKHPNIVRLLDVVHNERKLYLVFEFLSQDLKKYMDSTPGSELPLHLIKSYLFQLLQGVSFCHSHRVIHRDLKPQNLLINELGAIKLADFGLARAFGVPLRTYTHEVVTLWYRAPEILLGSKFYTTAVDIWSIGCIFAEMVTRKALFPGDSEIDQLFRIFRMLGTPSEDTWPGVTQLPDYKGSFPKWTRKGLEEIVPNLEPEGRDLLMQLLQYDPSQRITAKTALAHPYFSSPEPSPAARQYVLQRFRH
Conditions: at 0.1 µM

{"MOLECULE": "CCc1cccc(NC(=O)Nc2ccc(Oc3ccc4nc(NC(=O)OC)[nH]c4c3)cc2)c1", "OUTPUT_UNIT": "%", "inhibition": 1.01}
{"MOLECULE": "Cc1nnc(-c2ccc(C)c(-c3ccc(C(=O)Nc4cccc(C#N)c4)cc3)c2)o1", "OUTPUT_UNIT": "%", "inhibition": 4.52}
{"MOLECULE": "COc1cccc(-n2ncc3c(N/N=C/c4cccc(F)c4)ncnc32)c1", "OUTPUT_UNIT": "%", "inhibition": 4}
{"MOLECULE": "COc1cc2ncn(-c3cc(OCc4ccccc4C(F)(F)F)c(C(N)=O)s3)c2cc1OC", "OUTPUT_UNIT": "%", "inhibition": -1.21}
{"MOLECULE": "CCn1c(-c2nonc2N)nc2cncc(C(=O)N3CCNCC3)c21", "OUTPUT_UNIT": "%", "inhibition": -1.18}
{"MOLECULE": "CCCN1CCC=C(c2ccc(Nc3nc(Nc4ccccc4C(N)=O)c4cc[nH]c4n3)c(C)c2)C1", "OUTPUT_UNIT": "%", "inhibition": -2.97}
{"MOLECULE": "CN1CCC(C(=O)Nc2n[nH]c3nnc(-c4ccccc4)cc23)CC1", "OUTPUT_UNIT": "%", "inhibition": 5.12}
{"MOLECULE": "CCn1c(-c2nonc2N)nc2cncc(C(=O)N3CC[C@H](N)C3)c21", "OUTPUT_UNIT": "%", "inhibition": 5.34}
{"MOLECULE": "Cc1nn(C)c2cc(N(C)c3ccnc(Nc4cccc(S(N)(=O)=O)c4)n3)ccc12", "OUTPUT_UNIT": "%", "inhibition": 1.91}
{"MOLECULE": "O=C1NC(=O)C(N2CCc3ccccc32)=C1c1ccc(Cl)cc1", "OUTPUT_UNIT": "%", "inhibition": 3.85}
{"MOLECULE": "CS(=O)(=O)CCN(CC#N)Cc1ccc(-c2ccc3ncnc(Nc4ccc(OCc5cccc(F)c5)c(Cl)c4)c3c2)o1", "OUTPUT_UNIT": "%", "inhibition": -2.24}
{"MOLECULE": "CS(=O)(=O)CCNCc1ccc(-c2ccc3ncnc(Nc4ccc(OCc5ccccc5)c(Cl)c4)c3c2)o1", "OUTPUT_UNIT": "%", "inhibition": 0.1}
{"MOLECULE": "Fc1cccc(COc2ccc(Nc3ncnc4cc(-c5ccc[nH]5)sc34)cc2Cl)c1", "OUTPUT_UNIT": "%", "inhibition": 3.58}
{"MOLECULE": "COc1cc2ncn(-c3cc(O[C@H](C)c4ccccc4Cl)c(C(N)=O)s3)c2cc1OC", "OUTPUT_UNIT": "%", "inhibition": 2.71}
{"MOLECULE": "Nc1ncnc2occ(-c3ccc(NC(=O)Nc4cccc(C(F)(F)F)c4)cc3)c12", "OUTPUT_UNIT": "%", "inhibition": 2.04}
{"MOLECULE": "O=C1NC(=O)C(c2ccccc2Cl)=C1Nc1cccc(O)c1", "OUTPUT_UNIT": "%", "inhibition": 2.37}
{"MOLECULE": "NCc1ccc(-c2nc(-c3ccc(Cl)c(O)c3)c(-c3ccncc3)[nH]2)cc1", "OUTPUT_UNIT": "%", "inhibition": 0.9}
{"MOLECULE": "CS(=O)(=O)CCNCc1ccc(-c2ccc3ncnc(Nc4ccc(OCc5cccc(F)c5)c(C(F)(F)F)c4)c3c2)o1", "OUTPUT_UNIT": "%", "inhibition": 2.34}
{"MOLECULE": "CN(C)c1cc2c(Nc3ccc4nc(Cc5ccccc5)[nH]c4c3)ncnc2cn1", "OUTPUT_UNIT": "%", "inhibition": 3.16}
{"MOLECULE": "COc1cc2ncn(-c3cc(OCc4ccccc4Cl)c(C(N)=O)s3)c2cc1OC", "OUTPUT_UNIT": "%", "inhibition": 3.11}
{"MOLECULE": "O=C1NC(=O)C(c2ccc(Cl)cc2)=C1Nc1ccc(Cl)c(C(=O)O)c1", "OUTPUT_UNIT": "%", "inhibition": -0.7}
{"MOLECULE": "NS(=O)(=O)c1ccc(N/N=C2\\C(=O)Nc3ccc(C(=O)NCCc4c[nH]cn4)cc32)cc1", "OUTPUT_UNIT": "%", "inhibition": 26.9}
{"MOLECULE": "Nc1ncnc2occ(-c3ccc(NC(=O)Nc4cc(C(F)(F)F)cc(C(F)(F)F)c4)cc3)c12", "OUTPUT_UNIT": "%", "inhibition": -1.28}
{"MOLECULE": "NC(=O)c1ccc(-c2nc(-c3ccccn3)c(-c3ccc4c(c3)OCO4)[nH]2)cc1", "OUTPUT_UNIT": "%", "inhibition": 3.35}
{"MOLECULE": "Nc1nc(-c2ccccn2)c(-c2ccc3ncccc3n2)s1", "OUTPUT_UNIT": "%", "inhibition": 2.27}
{"MOLECULE": "CC(=O)Nc1cccc(C#Cc2cncnc2Nc2ccc(OCc3cccc(F)c3)c(Cl)c2)n1", "OUTPUT_UNIT": "%", "inhibition": 1.2}
{"MOLECULE": "CCn1c(-c2nonc2N)nc2c(N3CCCC3)nccc21", "OUTPUT_UNIT": "%", "inhibition": 0.91}
{"MOLECULE": "NC(=O)c1cccc(Nc2nccc(Nc3cccc4[nH]ncc34)n2)c1", "OUTPUT_UNIT": "%", "inhibition": 1.14}
{"MOLECULE": "CC1=C(C(=O)Nc2ccc3[nH]ncc3c2)C(c2ccc(Cl)c(Cl)c2)CC(=O)N1 (configuration not stated)", "OUTPUT_UNIT": "%", "inhibition": -0.69}
{"MOLECULE": "CS(=O)(=O)Nc1ccc(N/C=C2\\C(=O)Nc3ccccc32)cc1", "OUTPUT_UNIT": "%", "inhibition": 3.36}
{"MOLECULE": "Cc1cc(O)cc(C)c1/C=C/c1cncc(-c2nn[nH]n2)c1", "OUTPUT_UNIT": "%", "inhibition": 2.82}
{"MOLECULE": "COc1cc2ncn(-c3cc(O[C@@H](C)c4ccccc4Cl)c(C(N)=O)s3)c2cc1OC", "OUTPUT_UNIT": "%", "inhibition": -0.85}
{"MOLECULE": "O=C1Nc2ccc(C(=O)c3ccco3)cc2C1=Cc1cc(Cl)c(O)c(Cl)c1", "OUTPUT_UNIT": "%", "inhibition": 0.83}
{"MOLECULE": "COc1cc(C)c(NC(=O)CN(C)C)cc1Nc1nc(Nc2cccc(F)c2C(N)=O)c2cc[nH]c2n1", "OUTPUT_UNIT": "%", "inhibition": -0.76}
{"MOLECULE": "CCn1c(-c2nonc2N)nc2ccncc21", "OUTPUT_UNIT": "%", "inhibition": 2.26}
{"MOLECULE": "Nc1nc(-c2ccc3c(c2)C(=Cc2cc(Br)c(O)c(Br)c2)C(=O)N3)cs1", "OUTPUT_UNIT": "%", "inhibition": 0.55}
{"MOLECULE": "COC(=O)Nc1nc2cc(Oc3ccc(NC(=O)Nc4cccc(C(=O)O)c4)cc3)ccc2[nH]1", "OUTPUT_UNIT": "%", "inhibition": 1.76}
